The reported numbers originate from paper PMC12123460.

# STUDY_SYSTEM: murine KOR (Mus musculus)
# ASSAY_TEXT: Live cell GloSensor cAMP assay, antagonist mode, KOR-expressing HEK293T cells
# STUDY_CONDITIONS: GloSensor cAMP, HEK293T, 10 μM forskolin, salvinorin A at EC80
READOUT_TYPE: KOR Signaling

Example entries begin here.
molecule="CC1=C(c2cccc(O)c2)C2(C)CCC1N(CCc1ccccc1)C2C (centres unmarked)" recorded_result="Inverse Agonist"
molecule="CCn1cc(CN2C3C=C(c4cccc(O)c4)C(C)(CC3C(=O)OC)C2C)cn1 (centres unmarked)" recorded_result=Antagonist
molecule="COC(=O)C1CC2(C)C(c3cccc(O)c3)=CC1N(CCOc1c(C)cccc1C)C2C (centres unmarked)" recorded_result=Antagonist
molecule="COC(=O)C1CC2(C)C(c3cccc(O)c3)=C(C)C1N(C)C2C (centres unmarked)" recorded_result="Inverse Agonist"

## Input Fill in: KOR Signaling of CCn1cc(CN2C3C(C)=C(c4cccc(O)c4)C(C)(CC3C(=O)OC)C2C)cn1 (centres unmarked) is ___
## Output Inverse Agonist

====

# STUDY_SYSTEM: full length human μ opioid receptor (MOR) (Homo sapiens, UniProt P35372)
# ASSAY_TEXT: 3H-naltrexone radioligand competition binding, MOR membranes
# STUDY_CONDITIONS: read-out: MOR Ki binding affinity; 3H-naltrexone displacement, mean from three dose response experiments
Below is a list of entries, each paired with its recorded Ki value.
Give just the number in µM; leave the unit off.

compound="COC(=O)[C@@H]1C[C@]2(C)C(c3cc(F)cc(F)c3)=C[C@H]1N(C1CN(CCO)C1)[C@H]2C (racemic) [(±)-#57]" unit_label=µM recorded_result=5

## Input # query: Ki of entry COC(=O)[C@@H]1C[C@]2(C)C(c3ccc(O)c(OC)c3)=C[C@H]1N(CCN)[C@H]2C [(+)-#33]
## Output 0.98

## Input Request: COC(=O)[C@@H]1C[C@]2(C)C(C)=C(C)[C@H]1N(Cc1cnn(CC(F)F)c1)[C@H]2C (racemic) [(±)-#56]
## Output 8.8

## Input Also CCN1[C@@H]2C=C(C)[C@@](C)(C[C@H]2C(=O)OC)[C@@H]1C (racemic) [(±)-#001] , if possible.
## Output 7.1

====

Ki: recorded values
# STUDY_SYSTEM: full length human μ opioid receptor (MOR) (Homo sapiens)
# ASSAY_TEXT: 3H-naltrexone radioligand competition binding, MOR membranes
# STUDY_CONDITIONS: read-out: MOR Ki estimate (†); calculated from the Cheng–Prusoff equation based on a single point at 33 μM ligand
Just the number in µM, nothing appended.

## Input Request the reported Ki associated with CCCCC1=C[C@@H]2[C@H](C(=O)OC)C[C@@]1(C)[C@H](C)N2C[C@@H]1CCO1 (racemic) [(±)-#09]
## Output 14

## Input Entry to check: CCN1CC(N2[C@@H]3C=C(c4ccccc4O)[C@@](C)(C[C@H]3C(=O)OC)[C@@H]2C)C1 (racemic) [(±)-#05]
## Output 16

====

# STUDY_SYSTEM: murine κ opioid receptor (KOR) (Mus musculus)
# ASSAY_TEXT: 3H-naltrexone radioligand competition binding, KOR membranes
# STUDY_CONDITIONS: read-out: KOR Ki binding affinity; 3H-naltrexone displacement, mean from three dose response experiments
READOUT_TYPE: Ki (nM)
Write the number in nM without appending the unit.

## Input Endpoint output: Ki of COC(=O)[C@@H]1C[C@]2(C)C(c3cc(F)cc(F)c3)=C[C@H]1N(C1CN(CCO)C1)[C@H]2C (racemic) [(±)-#57] . Value?
## Output 1100

## Input Further, for CCN1CC(N2[C@@H]3C=C(c4ccccc4O)[C@@](C)(C[C@H]3C(=O)OC)[C@@H]2C)C1 (racemic) [(±)-#05] ?
## Output 8000

## Input # repeat for COC(=O)C1CC2(C)C(c3ccco3)=CC1N(C(C)CN1CCCC1)C2C (racemic) [(±)-#11]
## Output 400

## Input Record: COC(=O)[C@@H]1C[C@]2(C)C(c3ccc(O)c(OC)c3)=C[C@H]1N(CCN)[C@H]2C [(+)-#33]
## Output 1200

====

# STUDY_SYSTEM: murine κ opioid receptor (KOR) (Mus musculus)
# ASSAY_TEXT: 3H-naltrexone radioligand competition binding, KOR membranes
# STUDY_CONDITIONS: read-out: KOR Ki estimate (†); calculated from the Cheng–Prusoff equation based on a single point at 33 μM ligand
READOUT_TYPE: Ki
Report the figure along with its unit, number first.

## Input So what's the measured Ki for this one? CCCCC1=C[C@@H]2[C@H](C(=O)OC)C[C@@]1(C)[C@H](C)N2C[C@@H]1CCO1 (racemic) [(±)-#09]
## Output 12 µM

====

# STUDY_SYSTEM: UniProt P33534
# ASSAY_TEXT: Live cell GloSensor cAMP assay, antagonist mode, KOR-expressing HEK293T cells
READOUT_TYPE: pEC50
pEC50 is defined as minus the log10 of a concentration measured in mol/L.

## Input Name the reported pEC50 value associated with the compound CCn1cc(CN2C3C=C(c4cccc(O)c4)C(C)(CC3C(=O)OC)C2C)cn1 (stereo not shown)
## Output 6.42
